Please respond with reported IC50 at 72 h for every item in the list.
experiment: Cytotoxic MTS assay, MRC-5LD
Assay type: cell-based, human
test.conditions: human; MTS, 72 h of incubation; read-out: Cytotoxic activity IC50, MRC5-LD
Please reply with the bare figure in µM and do not write the unit itself.

QUERY: Item under review: Cc1cc(C)cc(C(=O)OCCC[S+]([O-])c2ccnc3cc(Cl)ccc23)c1 (centres unmarked) . Reported IC50 at 72 h?
RESULT: 22.1

QUERY: Which value of IC50 at 72 h has been reported for COc1cc(C(=O)OCCC[S+]([O-])c2ccnc3cc(Cl)ccc23)cc(OC)c1OC (centres unmarked) in the records?
RESULT: 25.8

QUERY: For the molecule COc1cc(C(=O)OCCS(=O)(=O)c2cc[n+]([O-])c3cc(Cl)ccc23)cc(OC)c1OC , what IC50 at 72 h is on record?
RESULT: 3.24

QUERY: Item under review: COc1cccc(C(=O)OCCC[S+]([O-])c2ccnc3cc(Cl)ccc23)c1OC (centres unmarked) . Reported IC50 at 72 h?
RESULT: 25.1

---

System: A549 (lung adenocarcinoma)
experiment: Cytotoxic MTS assay, A549
Type: cell-based, human
test.conditions: Homo sapiens, A549; MTS, 72 h of incubation; read-out: Cytotoxic activity IC50, A549
observation.type: IC50 (µM)
Please reply with the bare figure in µM and do not write the unit itself.

QUERY: Entry under review: COc1ccc(C(=O)OCCC[S+]([O-])c2ccnc3cc(Cl)ccc23)cc1[N+](=O)[O-] (centres unmarked) . Reported IC50?
RESULT: 7.76

QUERY: // IC50 lookup, key: COc1cc(C(=O)OCCS(=O)(=O)c2cc[n+]([O-])c3cc(Cl)ccc23)cc(OC)c1OC
RESULT: 28.4

QUERY: Which IC50 is listed for COc1cc(C(=O)OCCC[S+]([O-])c2ccnc3cc(Cl)ccc23)cc(OC)c1OC (centres unmarked) ?
RESULT: 30.5

QUERY: Look up IC50 for this compound: Cc1ccc([N+](=O)[O-])c(C(=O)OCC[S+]([O-])c2ccnc3cc(Cl)ccc23)c1 (centres unmarked)
RESULT: 15.7

QUERY: Fill blank: measured IC50 of the compound COc1ccc(C(=O)OCC[S+]([O-])c2ccnc3cc(Cl)ccc23)cc1[N+](=O)[O-] (centres unmarked) is ____.
RESULT: 25

---

experiment: Cytotoxic MTS assay, MRC-5
Assay type: cell-based, human
test.conditions: human, MRC-5 cells (noncancerous lung fibroblasts); MTS, 72 h of incubation
So I've got a bunch of compounds here, and I need their IC50 at 72 h values.
Give the number; µM is assumed, so skip it.

QUERY: What IC50 at 72 h value was documented for this compound, Cc1cc(C)cc(C(=O)OCCC[S+]([O-])c2ccnc3cc(Cl)ccc23)c1 (stereo not shown) ?
RESULT: 26.1

QUERY: Look up IC50 at 72 h: COc1ccc(C(=O)OCCC[S+]([O-])c2ccnc3cc(Cl)ccc23)cc1 (stereo not shown)
RESULT: 27.9

QUERY: I have this compound here, COc1cccc(C(=O)OCCC[S+]([O-])c2ccnc3cc(Cl)ccc23)c1OC (stereo not shown) , and I need its recorded IC50 at 72 h.
RESULT: 27.2

---

Would you mind telling me the reported melting point of each entry?

QUERY: Any idea what its melting point is? The molecule is COc1cc(OC)c(C(=O)OCCSc2ccnc3cc(Cl)ccc23)cc1OC
RESULT: 134 to 135 °C

QUERY: # input molecule: O=C(OCCSc1ccnc2cc(Cl)ccc12)c1cccc(Cl)c1 ; wanted: its melting point
RESULT: 94 to 96 °C

QUERY: // lookup melting point for COc1cccc(C(=O)OCCSc2ccnc3cc(Cl)ccc23)c1OC
RESULT: 108 to 109 °C

QUERY: What does the data say about its melting point? Entry: COc1ccc(OC)c(C(=O)OCCCSc2ccnc3cc(Cl)ccc23)c1
RESULT: 97 to 98 °C

QUERY: Item COc1cccc(C(=O)OCCCSc2ccnc3cc(Cl)ccc23)c1OC has what recorded melting point?
RESULT: 78 to 80 °C

QUERY: Return reported melting point; argument: COc1cc(C(=O)OCCSc2ccnc3cc(Cl)ccc23)cc(OC)c1OC
RESULT: 139 to 140 °C

QUERY: I'd like to know its melting point. The molecule in question is COc1ccc(OC)c(C(=O)OCC[S+]([O-])c2ccnc3cc(Cl)ccc23)c1 (stereo not shown)
RESULT: 112 to 113 °C

---

experiment: Cytotoxic MTS assay, BJ
Assay type: cell-based, human
test.conditions: human, BJ cells (noncancerous foreskin fibroblasts); MTS, 72 h of incubation
Kindly supply the reported IC50 at 72 h values for the records listed here.
// units = µM; emit number, no label

QUERY: // IC50 at 72 h lookup, key: COc1ccccc1C(=O)OCC[S+]([O-])c1ccnc2cc(Cl)ccc12 (centres unmarked) [Compound 47]
RESULT: 31.2

QUERY: Which IC50 at 72 h reading was recorded for the compound Cc1cc(C)cc(C(=O)OCCC[S+]([O-])c2ccnc3cc(Cl)ccc23)c1 (centres unmarked) [Compound 61] ?
RESULT: 30.3

QUERY: Fill in: IC50 at 72 h of COc1cc(C(=O)OCCS(=O)(=O)c2cc[n+]([O-])c3cc(Cl)ccc23)cc(OC)c1OC [Compound 67] is ___
RESULT: 24.8

QUERY: Reported IC50 at 72 h, compound COc1ccc(C(=O)OCC[S+]([O-])c2ccnc3cc(Cl)ccc23)cc1[N+](=O)[O-] (centres unmarked) [Compound 48] : ____
RESULT: 29.2

QUERY: Tell me the measured IC50 at 72 h of Cc1ccc([N+](=O)[O-])c(C(=O)OCC[S+]([O-])c2ccnc3cc(Cl)ccc23)c1 (centres unmarked) [Compound 49] , please.
RESULT: 30.7

QUERY: IC50 at 72 h lookup needed for COc1cccc(C(=O)OCCC[S+]([O-])c2ccnc3cc(Cl)ccc23)c1OC (centres unmarked) [Compound 54] , thanks.
RESULT: 30.4

QUERY: Find the recorded IC50 at 72 h belonging to COc1ccc(C(=O)OCCC[S+]([O-])c2ccnc3cc(Cl)ccc23)cc1 (centres unmarked) [Compound 53] and report it.
RESULT: 30

QUERY: Entry under review: COc1cc(C(=O)OCCC[S+]([O-])c2ccnc3cc(Cl)ccc23)cc(OC)c1OC (centres unmarked) [Compound 57] . Reported IC50 at 72 h?
RESULT: 33

---

Tested on: MRC-5LD (noncancerous human lung fibroblasts doxorubicin-resistant)
experiment: Cytotoxic MTS assay, MRC-5LD
Assay type: cell-based
Could you please report measured IC50 for the items listed next?
Report as a plain number; the unit µM is understood.

QUERY: Please give the measured IC50 for this molecule: Cc1ccc([N+](=O)[O-])c(C(=O)OCCCS(=O)(=O)c2cc[n+]([O-])c3cc(Cl)ccc23)c1
RESULT: 16.3

QUERY: What does the record list as IC50 for COc1ccc(C(=O)OCCS(=O)(=O)c2cc[n+]([O-])c3cc(Cl)ccc23)cc1[N+](=O)[O-] ?
RESULT: 2.74

QUERY: Entry COc1ccc(OC)c(C(=O)OCCS(=O)(=O)c2cc[n+]([O-])c3cc(Cl)ccc23)c1 has what IC50?
RESULT: 2.02

QUERY: Can you look up the measured IC50 of COc1ccc(C(=O)OCCCS(=O)(=O)c2cc[n+]([O-])c3cc(Cl)ccc23)cc1[N+](=O)[O-] for me?
RESULT: 13.8

QUERY: Any idea what IC50 was measured for COc1cccc(C(=O)OCCS(=O)(=O)c2cc[n+]([O-])c3cc(Cl)ccc23)c1OC ?
RESULT: 3.28

QUERY: I have this molecule here, O=C(OCCCS(=O)(=O)c1cc[n+]([O-])c2cc(Cl)ccc12)c1ccc(C(F)(F)F)cc1 , and I need its recorded IC50.
RESULT: 19.8

QUERY: IC50 for COc1ccc(C(=O)OCCCS(=O)(=O)c2cc[n+]([O-])c3cc(Cl)ccc23)cc1 ?
RESULT: 19

QUERY: What value of IC50 has been recorded for this entry: COc1ccc(OC)c(C(=O)OCCCS(=O)(=O)c2cc[n+]([O-])c3cc(Cl)ccc23)c1
RESULT: 18.9

QUERY: Tell me the measured IC50 of COc1cc(OC)c(C(=O)OCCCS(=O)(=O)c2cc[n+]([O-])c3cc(Cl)ccc23)cc1OC , please.
RESULT: 19.6

QUERY: Quick check: IC50 of Cc1ccc([N+](=O)[O-])c(C(=O)OCCS(=O)(=O)c2cc[n+]([O-])c3cc(Cl)ccc23)c1 ?
RESULT: 6.47

QUERY: Which IC50 reading was recorded for the molecule Cc1cc(C)cc(C(=O)OCCCS(=O)(=O)c2cc[n+]([O-])c3cc(Cl)ccc23)c1 ?
RESULT: 21.9

QUERY: I would be grateful if you could share the reported IC50 for COc1ccccc1C(=O)OCCCS(=O)(=O)c1cc[n+]([O-])c2cc(Cl)ccc12 .
RESULT: 19.5

QUERY: IC50 for COc1cc(C(=O)OCCCS(=O)(=O)c2cc[n+]([O-])c3cc(Cl)ccc23)cc(OC)c1OC ?
RESULT: 20.1

QUERY: For the molecule shown here, O=C(OCCS(=O)(=O)c1cc[n+]([O-])c2cc(Cl)ccc12)c1ccc(C(F)(F)F)cc1 , give the reported IC50.
RESULT: 13.9

QUERY: What value of IC50 has been recorded for this entry: COc1cc(OC)c(C(=O)OCCS(=O)(=O)c2cc[n+]([O-])c3cc(Cl)ccc23)cc1OC
RESULT: 2.3
